Each recorded value in this set is attributed to patent US4413005A.

# Test system: house fly (Musca domestica)
# experiment: Local application to house fly, LD50 by Probit method (Test Example 4)
# Format: in vivo
# condition description: topical, 24 h
Each entry below lists one item and its recorded LD50 value.
Record the value in mg/kg, omitting the unit from your answer.

Some compounds with recorded LD50:
CC(C)N(CC#N)SN(C)C(=O)Oc1cccc2c1OC(C)(C)C2 ... 16.7
CCCCN(CC(=O)OCC)SN(C)C(=O)Oc1cccc2c1OC(C)(C)C2 ... 16.7
COC(=O)CN(CC(=O)OC)SN(C)C(=O)Oc1cccc2c1OC(C)(C)C2 ... 40
CN(SN(CCC#N)C1CCCCC1)C(=O)Oc1cccc2c1OC(C)(C)C2 ... 46
CCCCN(CCC#N)SN(C)C(=O)Oc1cccc2c1OC(C)(C)C2 ... 13.7
CCOC(=O)CN(CC(=O)OCC)SN(C)C(=O)Oc1cccc2c1OC(C)(C)C2 ... 58.8
CCOC(=O)CCN(CC(C)C)SN(C)C(=O)Oc1cccc2c1OC(C)(C)C2 ... 23.8
CN(CCC#N)SN(C)C(=O)Oc1cccc2c1OC(C)(C)C2 ... 11.8
CCOC(=O)CN(SN(C)C(=O)Oc1cccc2c1OC(C)(C)C2)c1cccc(C)c1 ... 10.4
CCOC(=O)CN(Cc1ccc(Cl)cc1)SN(C)C(=O)Oc1cccc2c1OC(C)(C)C2 ... 61.9

Dear colleague, I am looking for the recorded LD50 of the following compound: CCOC(=O)CCN(SN(C)C(=O)Oc1cccc2c1OC(C)(C)C2)C(=O)OCC
54.3

Now this one: CCOC(=O)CN(SN(C)C(=O)Oc1cccc2c1OC(C)(C)C2)C(=O)CCl
29.2

Now this one: CCOC(=O)CN(SN(C)C(=O)Oc1cccc2c1OC(C)(C)C2)C(CC)C(=O)OCC (stereo not drawn)
93.9

Now this one: CCOC(=O)CN(SN(C)C(=O)Oc1cccc2c1OC(C)(C)C2)c1ccccc1
12.5
